I'd appreciate it if you could supply maximum position of the fluorescence spectrum λmax, Pep-PC, pH3 values for the items below.
Test: Steady-state tryptophan fluorescence and CD with and without POPC liposomes
Format: physicochemical
Conditions: with POPC liposomes pH 3; 5 μM peptide, 1.25 mM lipids; excitation 280 nm; 25 °C
Peptide text beside a SMILES is read from it.
Field format: number, assumed nm, no unit text.

Qu. Write down maximum position of the fluorescence spectrum λmax, Pep-PC, pH3 measured for item O=C(O)CC[C@@H]1NC(=O)[C@H](Cc2c[nH]c3ccccc23)NC(=O)[C@H](CS)NC(=O)[C@H](Cc2c[nH]c3ccccc23)NC(=O)[C@H](CCC(=O)O)NC(=O)[C@H](Cc2c[nH]c3ccccc23)NC(=O)[C@H](CCC(=O)O)NC(=O)[C@H](Cc2c[nH]c3ccccc23)NC(=O)[C@H](CCC(=O)O)NC(=O)[C@H](Cc2c[nH]c3ccccc23)NC1=O [c[(WE)4WC]] (cyclo(CWEWEWEWEW))
Ans. 341.1

Qu. Tell us which maximum position of the fluorescence spectrum λmax, Pep-PC, pH3 value is on record for O=C(O)CC[C@@H]1NC(=O)[C@H](Cc2c[nH]c3ccccc23)NC(=O)[C@H](CS)NC(=O)[C@H](Cc2c[nH]c3ccccc23)NC(=O)[C@H](CCC(=O)O)NC(=O)[C@H](Cc2c[nH]c3ccccc23)NC(=O)[C@H](CCC(=O)O)NC(=O)[C@H](Cc2c[nH]c3ccccc23)NC1=O [c[(WE)3WC]] (cyclo(CWEWEWEW))
Ans. 341.7

Qu. Please give measured maximum position of the fluorescence spectrum λmax, Pep-PC, pH3 of the following entry: O=C(O)CC[C@@H]1NC(=O)[C@H](CS)NC(=O)[C@H](Cc2c[nH]c3ccccc23)NC(=O)[C@H](Cc2c[nH]c3ccccc23)NC(=O)[C@H](Cc2c[nH]c3ccccc23)NC(=O)[C@H](Cc2c[nH]c3ccccc23)NC(=O)[C@H](Cc2c[nH]c3ccccc23)NC(=O)[C@H](CCC(=O)O)NC(=O)[C@H](CCC(=O)O)NC(=O)[C@H](CCC(=O)O)NC1=O [c[E4W5C]]
Ans. 340.2

Qu. Kindly indicate its recorded maximum position of the fluorescence spectrum λmax, Pep-PC, pH3. Item: CC(C)C[C@@H]1NC(=O)[C@H](CS)NC(=O)[C@H](Cc2c[nH]c3ccccc23)NC(=O)[C@H](CCC(=O)O)NC(=O)[C@H](CC(C)C)NC(=O)[C@H](CCC(=O)O)NC(=O)[C@H](CC(C)C)NC(=O)[C@H](CCC(=O)O)NC(=O)[C@H](CC(C)C)NC(=O)[C@H](CCC(=O)O)NC1=O [c[(LE)4WC]] (cyclo(CLELELELEW))
Ans. 339.6

###

Assay: Dual quenching assay (acrylamide / 10-DN)
Format: physicochemical
Settings: 10% of lipids replaced by 10-DN; 7 μM peptide, 2.1 mM POPC; pH 8
Peptide text beside a SMILES is read from it.
PROPERTY MEASURED: percentage of fluorescence quenching, Pep-PC+10-DN pH8 (%)
Report the value in % with no unit label.

Qu. # return recorded percentage of fluorescence quenching, Pep-PC+10-DN pH8 for input O=C(O)CC[C@@H]1NC(=O)[C@H](Cc2c[nH]c3ccccc23)NC(=O)[C@H](CS)NC(=O)[C@H](Cc2c[nH]c3ccccc23)NC(=O)[C@H](CCC(=O)O)NC(=O)[C@H](Cc2c[nH]c3ccccc23)NC(=O)[C@H](CCC(=O)O)NC(=O)[C@H](Cc2c[nH]c3ccccc23)NC(=O)[C@H](CCC(=O)O)NC(=O)[C@H](Cc2c[nH]c3ccccc23)NC1=O [c[(WE)4WC]] (cyclo(CWEWEWEWEW))
Ans. 11
